Source of measurements: patent US20030236190A1

Please respond with reported pKd for every item in the list.
biological target: human insulin receptor (HIR) (human, UniProt P06213 28-1382, limits assumed); assay: 125I-insulin competition, solubilised HIR
Numbers only, as −log10 of the molar value.

Here is how some binders turned out for pKd.
LDQEWAWVQCVYGRGCPSESFYDWFERQLG [S486]: 7.24
SLEEEWAWVQCEVYGRGCPSESFYDWFERQL [S534]: 11.00
LAQEWAWVQCEVYGRGCPSESFYDWFERQL [S495]: 8.59
SLEEEWAQIQEDLYGANHNESFYDWFERQL [S601]: 9.74
SLEEEWAQVECEVWGRGCPS [S548]: 8.39

Field: pKd. Fill in for each record below.
1. SLEEEWAQVECEVWGRGCPSGSLDESFYDWFERQLG [S541]
2. LDEWAWVQCVEYGRGCPSESFYDWFERQLG [S483]

Response:
[11.11, 7.28]
